We begin with a simple list: items and their reported Functional assay Cross-linked by F(ab′)2 fragment IL-8.
Biological target: T1, CD134 expressed on the cell surface of HT1080_OX40 cells (human, UniProt P43489 29-277); also: test concentration or dose not given here
T1 sequence (looked up): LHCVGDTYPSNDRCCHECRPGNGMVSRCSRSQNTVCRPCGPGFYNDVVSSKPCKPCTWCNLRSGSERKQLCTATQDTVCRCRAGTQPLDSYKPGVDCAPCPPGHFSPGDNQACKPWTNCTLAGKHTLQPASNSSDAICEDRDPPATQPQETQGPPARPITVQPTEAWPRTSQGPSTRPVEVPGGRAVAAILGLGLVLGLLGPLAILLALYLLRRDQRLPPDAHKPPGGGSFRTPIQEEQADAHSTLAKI
Assay: cell-based or functional assay
recordedEndpoint: Functional assay Cross-linked by F(ab′)2 fragment IL-8 (abs. corr.)

{"columns": ["binder", "observedValue"],
 "data": [
  ["P018.S.11.A.C03 (antibody, V domains shown, V regions on human Ig constant parts; also called AB134_28) VH: QSVEESGGRLVTPGTPLTLTCKVSGFSLSTYDMIWVRQAPAKGLEYIGIIGGSGFTYYANWAKGRFTISKTSTTVDLKITSPTTEDTATYFCARNNYDMWGPGTLVTVSS VL: DVVMTQTPASVSEPVGGTVTIKCQASQSISNELAWHQQKPGQRPNLLIYGASTLESGVPSRFKGSRSGTEYTLTISDLESDDAATYYCQCTYYGSSYVGGAFGGGTEVVVK", 2.19],
  ["P018.S.12.A.E03 (antibody, V domains shown, V regions on human Ig constant parts; also called AB134_74) VH: QSVEESGGRLVTPGTPLTLTCTVAGIDLNICGMSWVRQAPGKGLEWIGIIYPSDYTYYATWAKGRFTISKTSTTVDLKITSPTTEDTATYFCARGLGHAWSHFDLWGQGTLVTVSS VL: AFELTQTPASVSEPVGGTVTIKCQASQSIGSDLAWYQQKPGQPPKLLIYSVSNLPSGVSSRFKGSRSGTEYTLTISDLESADAATYYCQSYYGTITTGYIAFGGGTEVVVK", 2],
  ["P018.S.11.A.A05 (antibody, V domains shown, V regions on human Ig constant parts; also called AB134_22) VH: QSVEESGGRLVTPGTPLTLTCTVSGFSLNSYDMSWVRQAPGKGLEWIGFISASGSIYFANWAKGRFTISKTSTTVDLKITSPTTEDTATYFCASDSYGWAYVYYFNLWGPGTLVTVSS VL: AVVLTQTPASVSAAVGGTVTINCRASEDIGSYLGWYQQKPGQPPKLLMHDASDLASGVPSRFSGSGSGTEFTLTISGVQSDDAATYYCQSAWYSSGTDKMAFGGGTEVVVK", 2.15],
  ["P018.S.11.A.E05 (antibody, V domains shown, V regions on human Ig constant parts; also called AB134_36) VH: QSLEESGGRLVTPGTPLTLNCTASGFSLSAYWMGWVRQAPGKGLEWIGIIYATGSTYYTTWAKGRFTISRTSTTVDLKMTSPTTEDTATYFCGRGDGYESLNLWGPGTLVTVSS VL: AQVLTQTPSSVSAAVGGTVTINCQSSQSVYSNNLLSWYQQKPGQPPKRLIYGASTLDSGVSSRFKGSGSGTQFTLTISGMQSDDAATYYCLGYYSGGIYVFGGGTEVVVK", 1.42],
  ["P018.S.12.A.H01 (antibody, V domains shown, V regions on human Ig constant parts; also called AB134_88) VH: QSVEESGGRLVTPGTPLTLTCTVSGFSLSSYAMSWVRQAPGKGLEWIGDINSYATTYYASWAKGRFTISKTSTTVDLKLTSPTTEDTATYFCAREAGYADLWGQGTLVTVSS VL: AYDMTQTPASVEVAVGGTVTIKCQASQSISRYLSWYQQEPGQRPKLLIYEASTLASGVSSRFKGSGSGTQFTLTISGVESADAATYYCQQDYDSTDVGNTFGGGTEVVVK", 1.83],
  ["P018.S.12.A.F05 (antibody, V domains shown, V regions on human Ig constant parts; also called AB134_81) VH: QSLEESGGGLVQPGGSLKLSCKASGIDFSSYGVSWVRQAPGKGLEWIAYTYPDYGSTDYASWVNGRFTISLDNAQNTVFLQMTSLTAADTATYFCASSSNGWGGGFYFDLWGPGTLVTVSS VL: ALVMTQTPSPVSAAVGGTVTINCQASEDIYSNLAWFQQKPGQPPKLLIYGASTLASGVPSRFSGSGSGTEFTLTINDLKSDDAATYYCLGVYTYITTDPNAFGGGTEVVVK", 2.17],
  ["P018.S.04.A.C06 (antibody, V domains shown, V regions on human Ig constant parts; also called AB134_8) VH: QSVEESGGRLVTPGTPQTLTCTVSGFSLSSYAMSWVRQAPGKGLEWIGIISSSGSTYYASWAKGRFTISKTSTTVDLKITSPTTEDTATYFCARDAYPSYSPFGYYFTLWGQGTLVTVSS VL: AIKMTQTPASVSAAVGGTVSINCQASEDIYNYLAWYQQKPGQPPKLLIYDASDLASGVPSRFKGSGSGKQFTLTISGVQSDDAATYYCQHGYFTYSGENAFGGGTEVVVK", 2],
  ["P018.S.12.A.G01 (antibody, V domains shown, V regions on human Ig constant parts; also called AB134_83) VH: QSVEESGGRLVTPGTPLTLTCTVSGFSLSSSTMGWFRQAPGKGLEWIGVIYTDGDTYYARWAKGRFTISKTSTTINLSITSPTSEDTATYFCARRANGYDDFDPWGPGTLVTVSS VL: AYDMTQTPASVEVAVGGTVTIKCQASESISSYLNWYQQKPGQPPKLLIYYESYLASGVPSRFKGSGSGTEYTLTISGVESADAATYYCQQGFSYINVDNTFGGGTEVVVK", 1.86],
  ["P018.S.11.A.D06 (antibody, V domains shown, V regions on human Ig constant parts; also called AB134_32) VH: QSLEESGGRLVKPGESLTLTCTVSEFSLSSNAMGWVRQAPGKGLEFIGLIDSGGDAYYATWAKGRFTISKTSSTTVDLKATSLTTEDTATYFCGRGYWFPRLGLWGQGTLVTVSS VL: AAVLTQTPSPVSAAVGGTVSINCQSTKNVYLNNWLGWFQKKPGQPPKLLIYDASTLASGVPSRFKGSGSGTEFTLTISDLESDDAATYYCAGAYDDNSDHTFGGGTEVVVK", 1.97]
]}
